Tested on: hard fouling (barnacles, serpulids, spirorbids)
protocolDescription: Field testing of coated rods
Assay type: in vivo
conditionsUsed: coated rods, 25 ug active ingredient per ml of VC50 coating
Counter-ions that a name gives are not always drawn.
measurementLabel: Total hard fouling, mean cover (%)
Numbers only; they are read as %.

What measured Total hard fouling, mean cover goes with "Cc1cc2c(s1)Nc1ccccc1N=C2N1CCN(C)CC1" ?
17.3

What measured Total hard fouling, mean cover goes with Cc1nccn1CC1CCc2c(c3ccccc3n2C)C1=O (stereo not shown) [ZFN, ondansetron hydrochloride] ?
10

What measured Total hard fouling, mean cover goes with CCCCCCCCCC(=O)OC1(c2ccc(Cl)cc2)CCN(CCCC(=O)c2ccc(F)cc2)CC1 [HDL, haloperidol decanoate] ?
30

What measured Total hard fouling, mean cover goes with CN(C)C(=O)C(CCN1CCC(O)(c2ccc(Cl)cc2)CC1)(c1ccccc1)c1ccccc1 [IMD, Loperamide hydrochloride] ?
0.67

Data credit: patent US20060110456A1
